Source listed as patent US20080026996A1.

Exercise: for every item that follows, state its recorded EC50 cAMP, Alpha Screen.
Target: T1, human VPAC2 receptor (human, UniProt P41587 24-438)
T1 sequence (looked up): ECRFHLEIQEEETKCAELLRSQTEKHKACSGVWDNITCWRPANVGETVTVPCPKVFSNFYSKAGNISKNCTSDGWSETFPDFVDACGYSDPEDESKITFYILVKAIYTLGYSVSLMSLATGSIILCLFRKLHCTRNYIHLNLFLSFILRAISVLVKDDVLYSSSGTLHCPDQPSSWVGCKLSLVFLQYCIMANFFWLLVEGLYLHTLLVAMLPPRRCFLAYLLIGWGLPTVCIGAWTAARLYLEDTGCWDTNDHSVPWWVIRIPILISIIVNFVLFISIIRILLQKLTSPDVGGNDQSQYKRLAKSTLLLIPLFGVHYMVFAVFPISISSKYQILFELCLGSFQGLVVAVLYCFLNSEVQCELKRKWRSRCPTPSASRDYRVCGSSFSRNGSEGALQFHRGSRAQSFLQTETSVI
Experiment: cell-based or functional assay
Where no end group is shown, it is not given here. [ ]: non-standard residue; d: D form. The star is where a group is joined. Nle = CCCC[C@H](N)C(=O)O; Hexanoyl = CCCCCC(=O)*; Aib = CC(C)(N)C(=O)O

These solved cases illustrate the format of a correct answer.
In: Which value of EC50 cAMP, Alpha Screen has been reported for Hexanoyl-HSDAVFTDNYTRLFKQVAAKKYLQSIKNKRYGGPSSGAPPPS [P175] in the records?
Out: 680 pM

In: Follow-up entry: Hexanoyl-HSDAVFTDNYTRLLAKLALQKYLQSIKNKRYGGPSSGAPPPC [P164]
Out: 110 pM

Dear colleague, could you please provide EC50 cAMP, Alpha Screen for the binders listed below?
1. Hexanoyl-HSDAVFTDNYTRLR[Aib]Q[Nle]AA[Aib]KYLQSIKNKRYGGPSSGAPPPS (ends and bridges not checked) [P325]
2. Hexanoyl-HSDAVFTDNYTRLRRQVAAKKYLQSIKNKRYGGPSSGAPPPS [P176]
3. Hexanoyl-HSDAVFTDNYTRLR[Aib]QVAA[Aib]KYLQSIK[Aib]GGPSSGAPPPS (ends and bridges not checked) [P355]
4. MHSDAVFTDNYTRLLAKLALQKYLQSIKNKRYGGPSSGAPPPS (N-terminal methionine added (M-)) [P140]
5. Hexanoyl-HSDAVFTDNYTRL[Aib]KQVAAVKYLQSIKNKRYGGPSSGAPPPS (ends and bridges not checked) [P269]

Out:
1. 240 pM
2. 280 pM
3. 100 pM
4. 70 pM
5. 1020 pM

Quick batch: EC50 cAMP, Alpha Screen for everything below.
1. Hexanoyl-HSDAVFTDNYTRLRKQVAAKKYLQLIKNKRYGGPSSGAPPPS [P114]
2. Hexanoyl-HSDAVFTDNYTRLRKQVAAKRYLQSIKNKRYGGPSSGAPPPS [P182]
3. Hexanoyl-HSDAVFTDNYTR[Aib]R[Aib]QVAA[Aib]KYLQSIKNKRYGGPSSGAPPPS (ends and bridges not checked) [P346]

Out:
1: 140 pM; 2: 290 pM; 3: 230 pM
